target: Tyrosine-protein kinase ITK/TSK (Homo sapiens); conditions: at 1 µM
measured attribute: residual activity

Observe how each entry below is paired with its result.
structure as smiles: O=c1c2ccccc2[nH]c(=S)n1CCN1CCC(=C(c2ccc(F)cc2)c2ccc(F)cc2)CC1
residual activity: 109%

structure as smiles: O=C1NC(=O)c2cc(Nc3ccc(F)cc3)c(Nc3ccc(F)cc3)cc21
residual activity: 110%

structure as smiles: Cc1nc2cc3nc(-c4cccs4)cnc3cc2n1C
residual activity: 108%

structure as smiles: COc1ccc(C(=O)Nc2sc3c(c2C(N)=O)CCCC3)cc1OC
residual activity: 101%

structure as smiles: Cc1nc(-c2ccccc2)c(-c2ccncc2)o1
residual activity: 113%

structure as smiles: Cc1cc2ncc(-c3ccccc3)nc2cc1C
residual activity: 93%

structure as smiles: Cn1cc(/C=C2\C(=O)Nc3ccc(S(N)(=O)=O)cc32)c2ccccc21
residual activity: 8%

structure as smiles: COc1cccc(-c2cc(=O)c3ccccc3o2)c1N
residual activity: 108%

Input line: Give a short answer stating reported residual activity for "Oc1n[nH]c2nnc(-c3c(-c4ccccc4)nn4ccccc34)cc12" .
Output line: 99%

Input line: Give a short answer stating reported residual activity for "O=C(Nc1cccc(Nc2nccc(Nc3cccc(C(F)(F)F)c3)n2)c1)C1CC1" .
Output line: 96%

Input line: Give a short answer stating reported residual activity for "Cc1cccc(-c2[nH]c(C(C)(C)C)nc2-c2ccc3c(c2)OCO3)n1" .
Output line: 96%
